Taken from the supplement of paper PMC7877785.

- run_description: self-splicing fitness, log relative to wild type (ln ratio); higher = more splicing; Tetrahymena group I intron in knt gene, E. coli kanamycin selection, DiMSum; sequences stand for … in CUCUCU…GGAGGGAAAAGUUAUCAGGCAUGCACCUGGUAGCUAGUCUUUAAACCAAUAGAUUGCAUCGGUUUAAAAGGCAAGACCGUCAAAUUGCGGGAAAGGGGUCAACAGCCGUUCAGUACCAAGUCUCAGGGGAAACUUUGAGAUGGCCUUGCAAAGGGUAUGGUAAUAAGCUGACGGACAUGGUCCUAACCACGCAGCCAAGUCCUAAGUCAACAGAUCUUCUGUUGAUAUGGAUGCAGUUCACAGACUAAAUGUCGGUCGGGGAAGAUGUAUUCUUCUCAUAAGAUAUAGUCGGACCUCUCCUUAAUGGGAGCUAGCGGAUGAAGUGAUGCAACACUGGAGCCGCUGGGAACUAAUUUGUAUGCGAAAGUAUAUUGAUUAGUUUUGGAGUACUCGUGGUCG;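 further: selection with 25 µg/mL kanamycin versus none on LB agar overnight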
- measurement_setup: 37 °C
Use -2 as the dividing line for self-splicing fitness (ln), with the line itself on the yes (1) side and lower values as no (0).

# bool: self-splicing fitness (ln) of GGUGAGCAAUAUUACGUGGU >= -2
no (0)

Could you tell me if the measured self-splicing fitness (ln) of GACUAGCAAUAUUACGGAUG reaches -2 or more?
yes (1)

I'd appreciate it if you could say whether UUGUAGCAAUAUUACGAUUU has self-splicing fitness (ln) at least equal to -2.
yes (1)

Is self-splicing fitness (ln) for CGAUAGCAAUAUUACGUUAA at or above -2?
yes (1)

Could you tell me if the measured self-splicing fitness (ln) of GUGCAGCAAUAUUACGUCAC reaches -2 or more?
no (0)

self-splicing fitness (ln) >= -2 for GUAUAGCAAUAUUACGAGCG ?
yes (1)

Textbook exercise: given the entry GGCAAGCAAUAUUACGUAUC , state whether its self-splicing fitness (ln) is greater than or equal to -2.
yes (1)

Would you say CACCAGCAAUAUUACGGUCA shows self-splicing fitness (ln) at minimum -2?
yes (1)

Is the recorded value of self-splicing fitness (ln) equal to or greater than -2 for this sequence? CACCAGCAAUAUUACGAUAA
no (0)

Is self-splicing fitness (ln) for GCUUAGCAAUAUUACGCCAU at or above -2?
no (0)

Textbook exercise: given the entry CCAAAGCAAUAUUACGUGGG , state whether its self-splicing fitness (ln) is greater than or equal to -2.
no (0)

Would you say AACUAGCAAUAUUACGGUCC shows self-splicing fitness (ln) at minimum -2?
yes (1)

Quick check: does AUCGAGCAAUAUUACGUUGC have self-splicing fitness (ln) greater than or equal to -2?
yes (1)

In plain terms: is recorded self-splicing fitness (ln) at least -2 for UCCCAGCAAUAUUACGCGAC ?
no (0)

Record CAAAAGCAAUAUUACGCUCG ; criterion: self-splicing fitness (ln) no lower than -2. Met?
yes (1)

Decide: self-splicing fitness (ln) of AGCUAGCAAUAUUACGAAUG >= -2?
no (0)

###

Exercise: for every item that follows, state its recorded self-splicing fitness (ln).
- run_description: self-splicing fitness, log relative to wild type (ln ratio); higher = more splicing; Tetrahymena group I intron in knt gene, E. coli kanamycin selection, DiMSum; sequences stand for … in CUCUCU…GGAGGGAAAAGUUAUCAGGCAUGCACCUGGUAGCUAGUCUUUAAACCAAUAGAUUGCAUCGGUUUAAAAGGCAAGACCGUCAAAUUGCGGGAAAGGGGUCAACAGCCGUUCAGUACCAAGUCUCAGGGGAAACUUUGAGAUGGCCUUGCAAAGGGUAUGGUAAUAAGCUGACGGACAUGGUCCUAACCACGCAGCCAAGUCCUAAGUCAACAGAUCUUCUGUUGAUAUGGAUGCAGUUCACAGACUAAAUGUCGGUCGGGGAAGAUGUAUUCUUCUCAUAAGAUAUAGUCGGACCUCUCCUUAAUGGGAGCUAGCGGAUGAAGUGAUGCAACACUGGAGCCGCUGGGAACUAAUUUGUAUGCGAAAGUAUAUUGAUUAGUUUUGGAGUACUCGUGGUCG
- measurement_setup: 37 °C
Just the number.

Noted for ACGUAGCAAUAUUACGGAAG : its self-splicing fitness (ln) reads -1.91

GET /value?item= CGGGAGCAAUAUUACGCCUA &field=self-splicing fitness (ln) returns -2.14

// self-splicing fitness (ln) value for GAUGAGCAAUAUUACGUUCU : -1.32

The reported value for CCUCAGCAAUAUUACGUCAG in terms of self-splicing fitness (ln) is -1.73

Measured self-splicing fitness (ln), AAUUAGCAAUAUUACGCGCC : -0.821

Documented self-splicing fitness (ln) of CAACAGCAAUAUUACGAUUA : -0.185

The measured self-splicing fitness (ln) associated with GUUAAGCAAUAUUACGAUCC reads 0.0862

Looking up GACAAGCAAUAUUACGAUCU , I found its self-splicing fitness (ln) recorded as -0.309

Quick note, self-splicing fitness (ln) for GGAGAGCAAUAUUACGGCAU landed at 0.206

Data point: AAAGAGCAAUAUUACGCAAG ; self-splicing fitness (ln) = -3.51

For record AUUCAGCAAUAUUACGUGUG the listed self-splicing fitness (ln) is -0.699

Memo: UCCGAGCAAUAUUACGAGGG , reported self-splicing fitness (ln): -1.93

What the record says about AGCUAGCAAUAUUACGUGGA : self-splicing fitness (ln) is -2.04

Looking up AGUGAGCAAUAUUACGAAUU , I found its self-splicing fitness (ln) recorded as -2.56

get_value(item= GCUGAGCAAUAUUACGUUAC , readout=self-splicing fitness (ln)) returns -2.37

Sample CGGCAGCAAUAUUACGAGUG ; self-splicing fitness (ln) observed: 0.319

For GCAAAGCAAUAUUACGGCAG the sequence record lists self-splicing fitness (ln) as -2.81

Entry AUGAAGCAAUAUUACGGCCA , self-splicing fitness (ln) reported as 0.466

GET /value?item= GAAUAGCAAUAUUACGGCCA &field=self-splicing fitness (ln) returns -0.0233

self-splicing fitness (ln) in this record for UCCAAGCAAUAUUACGCUUA : -1.86

The sequence listed as GGGCAGCAAUAUUACGAGGG shows self-splicing fitness (ln) equal to -2.39

The sequence listed as AGCAAGCAAUAUUACGCUUU shows self-splicing fitness (ln) equal to -1.55

self-splicing fitness (ln) in this record for CGACAGCAAUAUUACGUCUC : -2.13

The reported value for CUUAAGCAAUAUUACGAAUG in terms of self-splicing fitness (ln) is -0.0976

// self-splicing fitness (ln) lookup, sequence = UGGUAGCAAUAUUACGACCU , result: 0.261

For record GGAUAGCAAUAUUACGAGGU the listed self-splicing fitness (ln) is -2.7

The measured self-splicing fitness (ln) associated with CAAGAGCAAUAUUACGUAAA reads -3.01

Notebook: CACCAGCAAUAUUACGCUUG , self-splicing fitness (ln) read as -0.22

// GCGAAGCAAUAUUACGGCUG : self-splicing fitness (ln) value = -0.574

// self-splicing fitness (ln) value for CUAAAGCAAUAUUACGCUCG : -0.626

Just so you know, measured self-splicing fitness (ln) for UGGUAGCAAUAUUACGCGUG came out at 0.251

Input CUUUAGCAAUAUUACGAUAU . Output self-splicing fitness (ln): -3.25

Item: CCCCAGCAAUAUUACGGCGG | self-splicing fitness (ln): -2.99

Briefly, self-splicing fitness (ln) measured for UUACAGCAAUAUUACGCUAU : -2.33
